Test system: Hepatitis C virus
Assay: Antiviral activity against HCV in Huh-5-2 cells by replicon assay
Assay type: functional, organism-based, Hepacivirus hominis
So I've got a bunch of compounds here, and I need their pEC50 values.
Scale for pEC50: -log10 of concentration given in mol/L; no unit attached.

Kindly note: Hepatitis C virus, O=C(O)c1ccc2c(c1)cc(-c1ccc(OCc3cc(N4CCCC4=O)ccc3N3CCOCC3)cc1)n2C1CCCCC1 , pEC50 value reported: 6.68

Kindly note: Hepatitis C virus, O=C(O)c1ccc2c(c1)nc(-c1ccc(OCc3cc(N4CCCCC4=O)ccc3N3CCOCC3)cc1F)n2C1CCCCC1 , pEC50 value reported: 6.24

Kindly note: Hepatitis C virus, CN1CCN(c2ccc(N3CCCC3=O)cc2COc2ccc(-c3nc4cc(C(=O)O)ccc4n3C3CCCCC3)c(F)c2)CC1 , pEC50 value reported: 5.96

Kindly note: Hepatitis C virus, O=C(O)c1ccc2c(C3CCCCC3)c3n(c2c1)CCOc1cc(OCc2cc(N4CCCC4=O)ccc2-c2ccc(Cl)cc2)ccc1-3 , pEC50 value reported: 7.22

Kindly note: Hepatitis C virus, O=C(O)c1ccc2c(c1)nc(-c1ccc(OCc3cc(N4CCCC4=O)ccc3Oc3ccc(Cl)cc3)cc1F)n2C1CCCCC1 , pEC50 value reported: 5.51

Kindly note: Hepatitis C virus, O=C(O)c1ccc2c(C3CCCCC3)c3n(c2c1)CCOc1cc(OCc2cc(N4CCCC4=O)ccc2N2CCOCC2)ccc1-3 , pEC50 value reported: 8.12

Kindly note: Hepatitis C virus, CC(=O)Nc1ccc(N2CCOCC2)c(COc2ccc(-c3nc4cc(C(=O)O)ccc4n3C3CCCCC3)c(F)c2)c1 , pEC50 value reported: 6.04

Kindly note: Hepatitis C virus, O=C(O)c1ccc2c(c1)nc(-c1ccc(OCc3cc(N4CCCS4(=O)=O)ccc3N3CCOCC3)cc1F)n2C1CCCCC1 , pEC50 value reported: 6.26

Values from ChEMBL document CHEMBL1139907
